Test: PK in mice after iv injection of liposomal NA112: brain
Format: in vivo
Conditions: mouse, iv, 10 mg/kg, mice iv 10 mg/kg liposomes, 8 hr, read-out: Brain concentration Mean
Value type: concentration at 8 h
Write the numeric value and follow it with the unit.

Q) Look at this molecule and give its reported concentration at 8 h. CCC(NC(=O)[C@H](CC(C)C)NC(=O)NCc1ccccc1)C(=O)C(=O)NCc1cc(OC)cc(OC)c1 (mixture of isomers)
A) 17.4 ng/mL

----------
Assay: PK in mice after iv injection of liposomal NA112: brain
Format: in vivo
Settings: mouse, iv, 10 mg/kg, mice iv 10 mg/kg liposomes, 0.25 hr, read-out: Brain concentration A1
Protocol: NA112 was prepared in liposomes at a concentration of 1.5 mg/ml. Mice were injected in the tail vein with 200 μl of NA112 in liposomes (corresponding to a dose of 10 mg/kg) and were sacrificed at the following time-points: 1, 5, 15, 30 min, 1, 2, 4, 8, 16 and 24 h. Blood was collected and plasma rapidly prepared by centrifugation. Brains were also collected. NA112 in plasma and in brain homogenates was assayed with LC/Ms and the sensitivity of the assay was 1 ng/ml. […]
Value type: concentration at 0.25 h (ng/mL)
// units = ng/mL; emit number, no label

Q) Which concentration at 0.25 h is reported for this molecule? CCC(NC(=O)[C@H](CC(C)C)NC(=O)NCc1ccccc1)C(=O)C(=O)NCc1cc(OC)cc(OC)c1 (mixture of isomers) [NA112]
A) 106
